System: SK-MEL-2 melanoma
procedure_text: NCI tumour cell line growth inhibition, 48 h
measured_endpoint: log10 TGI (log10 of the value in µM)
// stored as log10 of TGI expressed in µM

compound | measured_endpoint | meas_value
O=C(NCCNCCO)c1cccc2ccc(-c3ccccc3)nc12 | log10 TGI | 1.31

IN: For `CN1CCN(P2(=S)Oc3ccc4ccccc4c3-c3c(ccc4ccccc34)O2)CC1` , what is its reported log10 TGI?
OUT: 1.63

IN: Query (compound): `CN=C(Nc1cccc(C(F)(F)F)c1)SCc1ccc(N=C=S)cc1` ; field requested: log10 TGI
OUT: 1.41

IN: So what does the record say about log10 TGI for `CC(C)/C(Cl)=N/OC(=O)Nc1ccc(Cl)c(Cl)c1` ?
OUT: 1.53

###

// reported TGI for each item listed
Test system: OVCAR-4 ovarian
procedure_text: NCI tumour cell line growth inhibition, 48 h

compound | meas_value
COc1ccc(OC(=O)CC2Cc3cc(OC)c(OC)c(OC)c3-c3ccc(SC)c(=O)cc32)cc1 (stereo not given) | > 100 µM
COc1cccc(/N=N/C(=NNC(=O)c2ccc(C)cc2)c2ccc(N(C)C)cc2)c1 | > 100 µM
COc1cc2c(cc1F)C(c1ccccc1Cl)=Nc1c(n[nH]c1C)N2 | 28.6 µM
Cc1cc2c(c(C(N)=O)c1C)-c1cc(Cl)cc(Cl)c1C2=O | > 100 µM
COc1cccc(Oc2ccccc2NC(=O)CNC(=O)c2cccc3ccccc23)c1 | > 25 µM

# evaluate next
IN: Form field - read-out: TGI; system: OVCAR-4 ovarian; submitted item: `CNNC(=NS(=O)(=O)c1cc(C#N)c(NNC)cc1S)NNC`
OUT: > 10 µM

###

Test system: U251 CNS
procedure_text: NCI tumour cell line growth inhibition, 48 h
measured_endpoint: TGI (µM)
Unit µM implied. Number only.

Reference set (3 entries):
molecule | meas_value
Cc1cc2c(cc1C)[n+](=O)c(C(=O)c1ccccc1)c(C(F)(F)F)n2[O-] | 16.4
COc1ccc(Nc2ccc([N+](=O)[O-])cc2[N+](=O)[O-])cc1CN(CCCl)CCCl | 30
Cn1ccnc1Oc1ccc(Cl)cc1 | 46.7

IN: Give its TGI value. Item: `C=C1[C@@H](O)O[C@H]2[C@H]1C[C@H](OC(C)=O)[C@]13C(=O)O[C@H]4C[C@](C)(O)[C@H]([C@H]41)C31C=C(C)[C@]2(O)O1`
OUT: 64.7

IN: Any idea what TGI was measured for CCN(CC)C1Oc2cc3c(cc2C(c2cccc(OC)c2OC)C1C)OCO3 (stereo not given) ?
OUT: 32

IN: Record request: TGI value, item `COc1ccc(/C=C(\C)[N+](=O)[O-])cc1OC`
OUT: 15.9

###

Test system: SK-MEL-28 melanoma
procedure_text: NCI tumour cell line growth inhibition, 48 h
# Lookup of reported TGI keyed by entry
Reply with just the number (in µM).

These recorded examples may help you get a feel for the data.
compound | unit_tag | meas_value
CN1CCc2nc3sc(C(N)=O)c(N)c3c(-c3cccs3)c2C1 | µM | 9.59
CC(C)/C(Cl)=N/OC(=O)Nc1ccc(Cl)c(Cl)c1 | µM | 8.5

IN: Kindly state the measured TGI obtained for `Cn1ccnc1Oc1ccc(Cl)cc1` with SK-MEL-28 melanoma.
OUT: 27.4

IN: Can you look up TGI on SK-MEL-28 melanoma for CCN(CC)C1Oc2cc3c(cc2C(c2cccc(OC)c2OC)C1C)OCO3 (centres undefined) ?
OUT: 50.6

IN: SK-MEL-28 melanoma / TGI / `O=C(NCCNCCO)c1cccc2ccc(-c3ccccc3)nc12` : value?
OUT: 22.1

Reference for the values: PubChem BioAssay (NCI)
